Assignment: determine reported Kd for the given binders.
Target: T1, recombinant human Trop-2-his protein (ACCESSION NO.: NP_002344.2, AA 1-274) (human, UniProt P09758 27-274)
T1 construct: range 27-274; also called recombinant human Trop-2 protein; recombinant human Trop-2 extracellular domain; not shown: his tag
T1 sequence (looked up): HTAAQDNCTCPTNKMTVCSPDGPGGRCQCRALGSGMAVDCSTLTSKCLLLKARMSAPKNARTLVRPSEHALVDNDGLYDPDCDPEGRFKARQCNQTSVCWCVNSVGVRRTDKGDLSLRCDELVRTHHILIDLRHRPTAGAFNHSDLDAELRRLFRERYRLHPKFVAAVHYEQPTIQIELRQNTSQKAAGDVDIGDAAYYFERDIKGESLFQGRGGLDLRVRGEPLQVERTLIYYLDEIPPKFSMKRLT
Assay: BLI, antibody on AHC sensor, Trop-2-his 60 nM
Numbers only, in nM.

h11-4-1 (antibody, human IgG1, kappa, V domains shown, also called CDR grafted antibody 11-4) VH: QVQLVQSGAEVKKPGASVKVSCKASGYTFTSYWINWVRQAPGQGLEWMGNIYPSNSYTNYNQKFKDRVTMTRDTSTSTVYMELSSLRSEDTAVYYCARYRSDGFAYWGQGTLVTVSS VL: EIVLTQSPATLSLSPGERATLSCRASQNIGTSIHWYQQKPGQAPRLLIYFASESISGIPARFSGSGSGTDFTLTISSLEPEDFAVYYCQQSNSWPFTFGGGTKVEIKR	2.16

Ask: Item under review: h11-4-15 (antibody, human IgG1, kappa, name in Kabat numbering, V domains shown) VH: EVQLVQSGAEVKKPGASVKVSCKASGYTFTSYWINWVRQAPGQGLEWMGNIYPSNSYTNYNQKFKDRVTMTRDTSTSTVYMELSSLRSEDTAVYYCSSYRSGGFAYWGQGTLVTVSS VL: EIVLTQSPATLSLSPGERATLSCRASQNIGTSISWYQQKPGQAPRLLIEFASESISGIPARFSGSGSGTDFTLTISSLEPEDFAVYYCQQSNSWPFTFGGGTKVEIKR . Reported Kd?
Result: 0.389
